Data provenance: patent US20260183295A1

Target: NUAK1 (Homo sapiens)
Sequence (O60285 whole entry): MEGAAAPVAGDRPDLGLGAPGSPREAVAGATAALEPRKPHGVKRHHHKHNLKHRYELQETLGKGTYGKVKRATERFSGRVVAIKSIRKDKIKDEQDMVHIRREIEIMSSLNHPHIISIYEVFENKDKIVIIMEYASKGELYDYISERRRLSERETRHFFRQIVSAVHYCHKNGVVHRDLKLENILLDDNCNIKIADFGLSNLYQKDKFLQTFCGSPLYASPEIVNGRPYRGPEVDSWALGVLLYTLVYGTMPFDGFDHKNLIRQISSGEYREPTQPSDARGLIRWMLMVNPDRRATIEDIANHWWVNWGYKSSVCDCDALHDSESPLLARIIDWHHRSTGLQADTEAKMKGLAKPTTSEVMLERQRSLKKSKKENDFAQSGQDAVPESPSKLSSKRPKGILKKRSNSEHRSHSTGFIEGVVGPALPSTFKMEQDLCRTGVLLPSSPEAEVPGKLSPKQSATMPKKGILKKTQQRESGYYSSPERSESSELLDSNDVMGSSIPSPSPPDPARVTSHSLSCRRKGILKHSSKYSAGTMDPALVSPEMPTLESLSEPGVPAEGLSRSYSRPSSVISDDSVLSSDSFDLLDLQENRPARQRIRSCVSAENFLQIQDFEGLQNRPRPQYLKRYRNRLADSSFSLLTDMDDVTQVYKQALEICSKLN
Test: NUAK1 In Vitro Kd, kinase binding assay (qPCR)
Conditions: second In Vitro column of Table 8
Readout name: Kd (nM)
Write it as a number; the unit nM goes unstated.

Q: What does the data say about its Kd? Entry: `CN1CCN(c2ccc(Nc3ncc4cc(C#N)c(=O)n(C5CCCC5)c4n3)cc2)CC1`
Result: 19

---

System: Caspase 3/7
Assay: Caspase 3/7 Glo assay, MDA-MB-231 cells, 24 hours
Assay type: cell-based
Conditions: Compound 1, Comparator 1, 2 5 μM, Comparator 4 10 μM (FIG. 22)

| Molecule | Caspase 3/7 activity |
| --- | --- |
| CC(=O)c1c(C)c2cnc(Nc3ccc(N4CCNCC4)cn3)nc2n(C2CCCC2)c1=O | no effect |
| CN(C)C(=O)c1cc2cnc(Nc3ccc(N4CCNCC4)cn3)nc2n1C1CCCC1 | no effect |

---

Test system: Hs578T spheroids
Assay: CellTiter Glo 3D spheroid viability
Assay type: cell-based
Conditions: 48 hours; Compound 1, Comparator 1, Comparator 2 5 μM; Comparator 4 10 μM
Readout name: decrease in organoid viability compared to DMSO

| Molecule | Reading |
| --- | --- |
| CN(C)C(=O)c1cc2cnc(Nc3ccc(N4CCNCC4)cn3)nc2n1C1CCCC1 [Comparator 2, ribociclib] | no effect |
| CC(=O)c1c(C)c2cnc(Nc3ccc(N4CCNCC4)cn3)nc2n(C2CCCC2)c1=O [Comparator 1, palbociclib] | no effect |
| CN1CCN(c2ccc(Nc3ncc4cc(C#N)c(=O)n(C5CCCC5)c4n3)cc2)CC1 [Compound 1] | ~40% |

---

Molecular target: CDK4/cyclin D1 (Homo sapiens)
Sequence (P11802 whole entry): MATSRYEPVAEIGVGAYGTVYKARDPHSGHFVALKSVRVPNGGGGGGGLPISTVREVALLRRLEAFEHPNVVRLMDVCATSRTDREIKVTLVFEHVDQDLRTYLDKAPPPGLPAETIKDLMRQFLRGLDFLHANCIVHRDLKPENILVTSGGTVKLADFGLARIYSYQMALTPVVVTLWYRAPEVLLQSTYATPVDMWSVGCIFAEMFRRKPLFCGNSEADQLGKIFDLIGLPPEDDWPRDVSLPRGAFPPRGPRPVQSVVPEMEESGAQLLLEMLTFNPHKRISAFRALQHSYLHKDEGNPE
Sequence (P24385 whole entry partner): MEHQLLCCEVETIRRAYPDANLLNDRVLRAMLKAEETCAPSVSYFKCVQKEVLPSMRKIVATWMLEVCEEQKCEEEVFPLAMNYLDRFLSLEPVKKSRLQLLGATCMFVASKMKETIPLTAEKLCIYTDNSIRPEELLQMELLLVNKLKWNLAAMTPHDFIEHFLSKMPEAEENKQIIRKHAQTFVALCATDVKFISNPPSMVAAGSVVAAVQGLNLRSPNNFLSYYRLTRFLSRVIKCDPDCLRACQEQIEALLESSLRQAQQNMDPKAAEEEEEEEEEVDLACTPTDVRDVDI
Test: CDK4/cyclin D1 In Vitro IC50
Assay type: biochemical
Readout name: IC50 (nM)
Write it as a number; the unit nM goes unstated.

Q: What does the data say about its IC50? Entry: `CN1CCN(c2ccc(Nc3ncc4cc(C#N)c(=O)n(C5CCCC5)c4n3)cc2)CC1`
Result: 2

---

Molecular target: CDK4/cyclin D1 (Homo sapiens)
Test: CDK4/cyclin D1 In Vitro Kd, kinase binding assay (qPCR)
Readout name: Kd (nM)
Write it as a number; the unit nM goes unstated.

Q: What does the data say about its Kd? Entry: CN1CCN(c2ccc(Nc3ncc4cc(C#N)c(=O)n(C5CCCC5)c4n3)cc2)CC1 [Compound 1]
Result: 0.18
